# key: entry, value: MIC
System: A. baumannii
protocol: Syn-BNP MIC against ESKAPE pathogens: A. baumannii
Type: cell-based, Acinetobacter baumannii
test context: Gram-negative

Some solved entries appear below for comparison.
molecule | MIC
CO[C@@H](C(N)=O)[C@H](NC(=O)c1ccc(NC(=O)[C@@H](N)Cc2ccc(O)cc2)cc1)C(=O)Nc1ccc(C(=O)Nc2ccc(C(=O)Nc3ccc(C(=O)O)c(O)c3OC(C)C)c(O)c2OC(C)C)cc1 | 4 µg/mL
CO[C@@H](C(N)=O)[C@H](NC(=O)c1ccc(NC(=O)[C@@H](N)Cc2ccccc2)cc1)C(=O)Nc1ccc(C(=O)Nc2ccc(C(=O)Nc3ccc(C(=O)O)c(O)c3OC(C)C)c(O)c2OC(C)C)cc1 | 0.125 µg/mL
COc1c(NC(=O)/C(C)=C/c2ccc(O)cc2)ccc(C(=O)N[C@@H](CC#N)C(=O)Nc2ccc(C(=O)Nc3ccc(C(=O)Nc4ccc(C(=O)O)cc4)c(O)c3OC)cc2)c1O | 0.5 µg/mL
COc1c(NC(=O)c2ccc(NC(=O)[C@H](CC#N)NC(=O)c3ccc(NC(=O)/C(C)=C/c4ccc(O)cc4)cc3)c(OC)c2O)ccc(C(=O)Nc2ccc(C(=O)O)cc2)c1O | 2 µg/mL
CO[C@@H](C(N)=O)[C@H](NC(=O)c1ccc(NC(=O)[C@@H](N)Cc2ccc(O)cc2)cc1)C(=O)Nc1ccc(C(=O)Nc2ccc(C(=O)Nc3ccc(C(=O)O)cc3)c(O)c2OC(C)C)cc1 | >8 µg/mL

Turning to the following molecule.
Identify measured MIC corresponding to COc1c(NC(=O)c2ccc(NC(=O)c3ccc(NC(=O)[C@H](CC#N)NC(=O)c4ccc(NC(=O)/C(C)=C/c5ccc(O)cc5)cc4)cc3)c(OC)c2O)ccc(C(=O)O)c1O [Albicidin, reference compound] 0.125 µg/mL
